Experiment: physchem
value-type: chromatographic logP
Keep the answer to the number alone.

chromatographic logP reading for CC(=O)O[C@H]1C(=O)[C@@]2(C)[C@H]([C@H](OC(=O)c3ccccc3)[C@]3(O)C[C@H](OC(=O)[C@H](O)[C@@H](NC(=O)c4ccccc4)c4ccccc4)C(C)=C1C3(C)C)[C@]1(OC(C)=O)CO[C@@H]1C[C@@H]2O [paclitaxel] : 4.68
